Measured melting point, listed per entry.

O=C(Nc1ccccc1)Nc1ccc(F)c([N+](=O)[O-])c1 | 200 to 202 °C
COC(=O)C1Cc2c([nH]c3ccccc23)C(c2ccc(Cl)c(Cl)c2)N1 (stereo not given) | 90 to 92 °C
N#Cc1cc(C=O)ccc1-n1cnc([N+](=O)[O-])n1 | 170 to 172 °C
CCOC(=O)c1ccc(NC(=O)N(CCc2ccccc2)c2ccc3c(c2)C(C)(C)CCC3(C)C)cc1 | 223 to 225 °C
CCOC(=O)c1csc(C2OC(CO)C(O)C2O)n1 (stereo not given) | 62 to 64 °C

input: Would you mind telling me what melting point value was observed for `COc1ccc(S(=O)(=O)Nc2cccnc2Nc2ccc(O)c(C)c2)cc1` ?
output: 89 to 91 °C

input: Repeat with `CNn1c(C)nn(C(=O)NC(C)(C)CCl)c1=O`
output: 93 °C

input: Another compound: `CN1CCN(c2nccnc2Cl)CC1`
output: 34 to 36 °C

input: And then Cc1onc2c1NC(=O)COC2(C)c1ccccc1 (stereo not given) , what is it?
output: 177 to 178 °C

input: // next record `CS(=O)(=O)Nc1cc2occ(-n3cccc3)c(=O)c2cc1Oc1ccccc1`
output: 238 to 240 °C
